- tested_target: Cytochrome P450 2C19 (Homo sapiens) (UniProt P33261)
- Sequence (P33261 whole entry, looked up): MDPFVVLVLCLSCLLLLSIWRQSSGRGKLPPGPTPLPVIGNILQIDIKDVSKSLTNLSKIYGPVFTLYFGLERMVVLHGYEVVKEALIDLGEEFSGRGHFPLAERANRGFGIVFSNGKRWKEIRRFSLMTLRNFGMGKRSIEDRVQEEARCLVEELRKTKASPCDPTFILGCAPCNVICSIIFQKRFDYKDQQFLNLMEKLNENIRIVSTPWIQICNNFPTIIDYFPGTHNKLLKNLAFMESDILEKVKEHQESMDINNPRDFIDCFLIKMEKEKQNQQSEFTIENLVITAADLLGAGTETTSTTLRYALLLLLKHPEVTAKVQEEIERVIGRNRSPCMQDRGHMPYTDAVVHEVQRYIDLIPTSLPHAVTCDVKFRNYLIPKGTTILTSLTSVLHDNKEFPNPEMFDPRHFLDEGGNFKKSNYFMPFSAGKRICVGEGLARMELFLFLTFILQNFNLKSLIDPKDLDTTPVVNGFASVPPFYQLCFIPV
- experimental_details: Cytochrome panel assay with activity outcomes; on activity, negative = inhibition: on the % scale 0 is the no-effect control and ±100 the full control effect
- experimental_parameters: recombinant CYP, pro-luciferin dealkylation, luminescence, p450-cyp2c19; series mostly up to 57.1 µM
In all, about 16,000 compounds went through this assay and about 5,800 (36%) were called active. Not shown: some 23% with an inconclusive outcome. This is one part of the list.
value_type: activity, negative = inhibition

Sample records with activity, negative = inhibition:
| molecule | tested_target | value_type | recorded_result |
| --- | --- | --- | --- |
| CO[C@H]1COC(=O)[C@@H](C)COC(=O)[C@@H](COCc2ccccc2)NC(=O)C/C=C\[C@H]1C | Cytochrome P450 2C19 (Homo sapiens) (UniProt P33261) | activity, negative = inhibition | 37.5% [at 11.4 µM] (inactive) |
| O=C(O)CCN1C(=S)CSC1=S | Cytochrome P450 2C19 (Homo sapiens) (UniProt P33261) | activity, negative = inhibition | 27% [at 11.4 µM] (inactive) |

Next:
Challenge: GET /values?readout=activity, negative = inhibition&item= `COc1ccc(-c2nc(N)c3ncn([C@H]4O[C@@H](CO)[C@@H](O)[C@@H]4O)c3n2)cc1`
Response given: 31.6% [at 11.4 µM] (inactive)

---

- tested_target: Cytochrome P450 2C19 (Homo sapiens)
- experimental_details: Cytochrome panel assay with activity outcomes
- experimental_parameters: recombinant CYP, pro-luciferin dealkylation, luminescence, p450-cyp2c19; series mostly up to 57.1 µM
Screen size: about 16,000 compounds; about 5,800 (36%) were called active. Inconclusive results (about 23%) are left out. The call rests on the fitted dose curve; in most records, active means well fitted curve in the direction sought with a large enough effect; inconclusive means small, poorly fitted or top-dose-only effect, or effect the other way; inactive means no such curve, though single readings can be large or run the other way. Some of the results follow.
Reply using exactly one outcome from active, inactive

Consider the worked cases shown below.
| molecule | class |
| --- | --- |
| COc1ccc(/C(C)=N/NC(=O)c2ccc(N(C)C)cc2)cc1 | inactive |
| CC(C)c1ccc(NC(=O)N(CCc2nc3ccccc3[nH]2)C2CCCC2)cc1 | active |
| O=C(c1cnccn1)N1CCC2(CCCN(c3ccccc3)C2)CC1 | active |
| O=C(NCCNS(=O)(=O)c1ccccc1Cl)c1cc(OCC(F)(F)F)ccc1OCC(F)(F)F | active |
| Cc1ccc(C(=O)Nc2ccccc2Oc2ccccc2)cc1[N+](=O)[O-] | active |
| CC(=O)OCC(=O)[C@@]1(O)CC[C@@H]2[C@H]3CCC4=CC(=O)CC[C@]4(C)[C@]3(F)[C@@H](O)C[C@@]21C | inactive |
| Cc1c(C(=O)Nc2ccc(OCc3ccccc3)cc2)cccc1[N+](=O)[O-] | inactive |
| O=C(NCCNS(=O)(=O)c1ccc(Cl)cc1)c1cc(OCC(F)(F)F)ccc1OCC(F)(F)F | active |

Challenge: Given `CCCCOc1ccccc1N` , state the outcome it received in this test.
Response given: active

Challenge: Now the molecule `CC1(C)Oc2cc(N)c([N+](=O)[O-])cc2O1`
Response given: active

Challenge: Next entry: `C/C(=N/NC(=O)Cc1cccn1C)c1ccccc1`
Response given: active

Challenge: Now give it for `Cc1ccc(C(=O)N/N=C\c2ccc[nH]2)cc1[N+](=O)[O-]` too.
Response given: inactive

---

Form field: activity, negative = inhibition (one value per entry).
- tested_target: Cytochrome P450 2C19 (Homo sapiens)
- experimental_details: Cytochrome panel assay with activity outcomes; on activity, negative = inhibition: on the % scale 0 is the no-effect control and ±100 the full control effect
- experimental_parameters: recombinant CYP, pro-luciferin dealkylation, luminescence, p450-cyp2c19; series mostly up to 57.1 µM
Out of some 16,000 compounds screened, about 5,800 (36%) were called active. Inconclusive results (about 23%) are left out. Some of the results follow.

Consider the worked cases shown below.
| molecule | activity, negative = inhibition |
| --- | --- |
| C/C(CCN1CCCc2nc(C)c(C)cc21)=N\OC[C@@H](O)[C@@H]1O[C@@H]2OC(C)(C)O[C@@H]2[C@H]1O | -36.9% [at 11.4 µM] (inactive) |
| CC(C)CO/N=C1/[C@H]2O[C@@H]2[C@@H](O)[C@H]2[C@H]1CCn1c(=O)n(-c3ccccc3)c(=O)n12 | 15.7% [at 11.4 µM] (inactive) |
| CC(=O)OC[C@@H]1O[C@H](C/C=N\OC[C@@H](C)[C@H](OCc2ccccc2)C(C)C)C=C[C@@H]1OC(C)=O | -16.1% [at 11.4 µM] (inactive) |
| Oc1c(Br)cc(CN(Cc2cc(Br)c(O)c(Br)c2)C2CCCCC2)cc1Br | -5.38% [at 11.4 µM] (inactive) |

Shifting focus to the molecule that follows.
Challenge: Could you share which activity, negative = inhibition value was measured for `O=C(O)C12CC3(C(=O)O)CC(C(=O)O)(CC(C(=O)O)(C1)C3=O)C2=O` ?
Response given: -11.5% [at 11.4 µM] (inactive)

---

- tested_target: Cytochrome P450 2C19 (Homo sapiens) (UniProt P33261)
- experimental_details: Cytochrome panel assay with activity outcomes
- experimental_parameters: recombinant CYP, pro-luciferin dealkylation, luminescence, p450-cyp2c19; series mostly up to 57.1 µM
- Method: The P450 gene superfamily is involved in the metabolism and clearance of xenobiotics. This assay used various human CYP P450 isozymes to measure the dealkylation of various pro-luciferin substrates to luciferin. The luciferin is then measured by luminescence after the addition of a luciferase detection reagent. […] Inhibitors and some substrates limit the production of luciferin, and decrease measured luminescence. […] 8, Detection, 1 sec, ViewLux luminescent read […]
The campaign covered roughly 16,000 compounds. About 5,800 (36%) were called active. About 23% were inconclusive and are not listed. Calls come from the whole dose curve; as a rule, active = well fitted curve in the direction sought with a large enough effect; inconclusive = small, poorly fitted or top-dose-only effect, or effect the other way; inactive = no such curve, though single readings can be large or run the other way. This is one part of the list.
Allowed answers: active, inactive

Worked cases, answers included:
| molecule | class |
| --- | --- |
| CCCn1nnnc1-c1cccc(Cl)c1 | active |
| Cc1oc(-c2cccc(Cl)c2)[n+]([O-])c1C | inactive |
| COc1ccccc1-c1cc(C(=O)Nc2cc(C)n(Cc3ccc(Cl)cc3)n2)no1 | active |
| CCOC(=O)c1[nH]c(C)c(/C(O)=C2\C(=O)C(=O)N(CCN3CCOCC3)C2c2cccs2)c1C (centres undefined) | active |
| CCN(CC)S(=O)(=O)c1ccc2c3c(cccc13)C(=O)S2 | active |

Challenge: Returns: the outcome recorded for `O=C(c1cccc(F)c1)N1CCC2(CCCN(Cc3ccncc3)C2)CC1` in this assay.
Response given: active

Challenge: Same lookup for `CCCn1nnnc1-c1cc(Cl)cc(Cl)c1` , please.
Response given: inactive

Challenge: Okay, and `CCOC(=O)C1=C2SCC(=O)N2C(N)=C(C#N)C1` ?
Response given: active

Challenge: Now the same for `CN(C)CC[C@@H](c1ccccc1)c1ccccn1`
Response given: inactive

Challenge: Now consider `CN(C)C(=C(C#N)C#N)N1CCN(c2ccc(Cl)c(Cl)c2)CC1` and answer again.
Response given: active

Challenge: Try the molecule `CCNc1ncc2nc(-c3ccc(F)cc3)c(=O)n(C)c2n1`
Response given: inactive

Challenge: What about this molecule? `CN(C)Cc1ccccc1-c1nc(NCc2cccs2)c2ccccc2n1`
Response given: inactive

Challenge: Field entry: `COC(=O)c1ccc(CSc2nc3cc(Cl)ccc3s2)o1`
Response given: active

Challenge: How about this molecule: `CC(C)OC(=O)C1=C2SCC(=O)N2C(N)=C(C#N)C1`
Response given: active

---

- tested_target: Cytochrome P450 2C19 (Homo sapiens) (UniProt P33261)
- experimental_details: Cytochrome panel assay with activity outcomes
- experimental_parameters: recombinant CYP, pro-luciferin dealkylation, luminescence, p450-cyp2c19; series mostly up to 57.1 µM
Among all 16,000 compounds or so, about 5,800 (36%) were called active. Inconclusive results (about 23%) are left out. Calls follow the shape of the dose curve; as a rule, active = well fitted curve in the direction sought with a large enough effect; inconclusive = small, poorly fitted or top-dose-only effect, or effect the other way; inactive = no such curve, though single readings can be large or run the other way. The list shows a part of the results.
# valid calls are TRUE (active), FALSE (inactive); nothing else

| molecule | class |
| --- | --- |
| Cc1ccc(S(=O)(=O)N(CC(=O)N2CCN(c3ccc(F)cc3)CC2)C2CCCCC2)cc1 | TRUE |
| O=C(NNC(=S)NCc1ccco1)c1ccc(Cl)s1 | TRUE |
| CCc1ccc(C(C(=O)NCc2ccc(OC)cc2)N(CCOC)C(=O)Cc2cccs2)cc1 (stereo unspecified) | TRUE |
| COC(=O)CSc1ncc(OC)c(OC)n1 | FALSE |
| O=C(NC12CC3CC(CC(C3)C1)C2)N1CCN(c2nc(-c3ccccc3)cs2)CC1 | TRUE |
| C=CCNc1nc(SCC=C)nc2ccsc12 | TRUE |
| O=C(Nc1ccc(N2CCCCC2)cc1)c1cncc(Br)c1 | TRUE |
| Nc1nc(Nc2ccccc2)nc2c1ncn2[C@@H]1O[C@@H](CO)[C@H](O)[C@H]1O | TRUE |

Challenge: For `C=CCSc1nc(Oc2ccccc2)c2sccc2n1` , what call appears in the results of this test?
Response given: TRUE

Challenge: Try this molecule too: `Cc1cc(OCC(F)(F)C(F)(F)C(F)(F)C(F)(F)C(F)(F)C(F)F)nc(N)n1`
Response given: TRUE

Challenge: Repeat with `C#CCSc1nnc(-c2sc3ccccc3c2Cl)o1`
Response given: FALSE

Challenge: Again, but for `Cc1ccccc1C(=O)NC(=S)NCC(=O)c1ccccc1`
Response given: TRUE

Challenge: What do you get for `C=CCSc1nc(NC)c2sccc2n1` ?
Response given: TRUE

Challenge: Also N#Cc1c(NC(=O)C2CC(c3ccccc3Cl)=NO2)sc2c1CCC2 (stereo unspecified) , if possible.
Response given: TRUE

Challenge: `CN(C)c1nccc(N(Cc2ccccc2)Cc2ccccc2)c1C#N` ?
Response given: TRUE

Challenge: Input `Cc1[nH]c(N)nc(=S)c1CCCNc1ccccc1`
Response given: TRUE

Challenge: // query: CCOC(=O)C(C)Sc1ncc(OC)c(Sc2ccc(Cl)cc2)n1 (stereo unspecified)
Response given: TRUE

Challenge: What do you get for O=C(NC1CCCCC1)C(c1cccs1)N(Cc1cccs1)C(=O)c1ccco1 (stereo unspecified) ?
Response given: TRUE

Challenge: Queued: COc1ccc(C(C(=O)NCc2ccccc2)N(Cc2cccs2)C(=O)c2cnccn2)cc1 (stereo unspecified)
Response given: TRUE

Challenge: Similarly, O=C(NCC1COc2ccccc2O1)C1CCN(S(=O)(=O)c2cccc3nsnc23)CC1 (stereo unspecified) ?
Response given: TRUE

Data origin, for the record: PubChem BioAssay AID1851
